meta.source: the supplement of paper PMC11208160

# run-description: recombinant barcode read abundance after kanamycin selection (control-corrected) (log10(CPM+1)); higher = more efficient recombination; sequences stand for … in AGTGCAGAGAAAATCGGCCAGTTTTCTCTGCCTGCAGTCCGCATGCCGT…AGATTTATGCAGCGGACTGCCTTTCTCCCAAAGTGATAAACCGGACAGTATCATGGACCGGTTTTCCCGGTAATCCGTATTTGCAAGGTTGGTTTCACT; site = the 11-nt target
Use YES when the recorded recombinant barcode read abundance (log10) is no lower than 0.2; use NO when it is lower.

Observe how each entry below is paired with its result.
AGTACAACTTGGGTTCTAACCTGTTGCCT (site AGGACAACTAG) : NO
CCTAGACCTTGGGTTCTAACCTGTTGCCT (site CCTAGATCTAG) : YES
TGTCTCCCTTGGGTTCTAACCTGTTGCGT (site TGTCTCCCTAC) : YES
CAACCGTCTTGGGTTCTAACCTGTTGCCT (site CAACCGACTAG) : NO

recombinant barcode read abundance (log10) >= 0.2 for GGGACGACTTGGGTTCTAACCTGTTGCTA (site GGGACGACTAA) ?
NO

Same question, TGAACTCCTTGGGTTCTAACCTGTTGCCT (site GTAACTCCTAG) this time
NO

Consider next the sequence AGATGTACTTGGGTTCTAACCTGTTGCTG (site AGATGTACTCA) in the same way.
YES

Do the same for TTCCGAGCTTGGGTTCTAACCTGTTGCAG (site TTCCGAGCTCT) please
YES

Repeat for the following sequence: CTAGTGACTTGGGTTCTAACCTGTTGCGC (site CTAGTGACTAC)
NO

How about this sequence: GAGTGGCCTTGGGTTCTAACCTGTTGCCT (site GAGTGGCCTAG)
YES

Can you check TCATATCCTTGGGTTCTAACCTGTTGCCT (site TCATATCCTAG) next?
NO

Thanks! And AGCGAATCTTGGGTTCTAACCTGTTGCCT (site AGTGAATCTAG) ?
NO

Please give the result for GGGTCCACTTGGGTTCTAACCTGTTGCCT (site GGGTCCACTAC) too.
YES

Continue with CGGCTGCCTTGGGTTCTAACCTGTTGCGG (site GTATCCGCTTG)
YES

Same read-out for TAGACGACTTGGGTTCTAACCTGTTGCAC (site TAGCCGTCTGT) ?
NO

Item: GTGTGGACTTGGGTTCTAACCTGTTGCAG (site GTGTGGACTCT)
YES

Another sequence to look at: GAGGCTCCTTGGGTTCTAACCTGTTGCCG (site GAGGCTCCTCG)
YES

Query GATTCTTCTTGGGTTCTAACCTGTTGCCT (site GATTCTTCTAG) next
NO

Input AGTTCCACTTGGGTTCTAACCTGTTGCCT (site AGTTTCACTAG)
NO

Now give it for GACTTGGCTTGGGTTCTAACCTGTTGCCT (site GACTTGGCTAG) too.
NO

What do we get for CCTTTACCTTGGGTTCTAACCTGTTGCCT (site TCTTTACCTAG) ?
NO

Another: AGCCAGGCTTGGGTTCTAACCTGTTGCGG (site TCGTTTCCTAT)
NO

Likewise for CTTAGGACTTGGGTTCTAACCTGTTGCCA (site CTTAGGACTCG) ?
NO

Next entry: GTCGGAGCTTGGGTTCTAACCTGTTGCCA (site GTCCGAACTTG)
NO

====

# run-description: recombinant UMI read abundance after kanamycin selection (control-corrected) (log10(CPM+1)); higher = more efficient recombination; extreme values may be limits of the assay; sequences stand for … in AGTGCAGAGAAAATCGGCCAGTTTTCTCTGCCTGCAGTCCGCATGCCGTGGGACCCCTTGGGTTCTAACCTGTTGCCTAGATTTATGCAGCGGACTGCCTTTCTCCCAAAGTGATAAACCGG…AGGTTGGTTTCACT; site = the 11-nt donor
Known recombinant UMI read abundance (log10) of a selection of sequences

AGCCTAACATGGACCGGTTTTCCCGGTAATCCGTATTTGCT (site AGCCTAACTAG) : 0
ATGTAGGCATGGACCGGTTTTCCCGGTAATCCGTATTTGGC (site ATCTAGGCTGC) : 0.844
GGGGAGGCATGGACCGGTTTTCCCGGTAATCCGTATTTGAG (site GGGGAGGCTCT) : 0.897
GGTGCTGCATGGACCGGTTTTCCCGGTAATCCGTATTTGCT (site GGTGCTGCTAG) : 1.53
CTATTATCATGGACCGGTTTTCCCGGTAATCCGTATTTGGC (site CTAGTATCTGT) : 0
AACTGCGCATGGACCGGTTTTCCCGGTAATCCGTATTTGTG (site AACTGCGCTCA) : 0.435
CGGGAGTCATGGACCGGTTTTCCCGGTAATCCGTATTTGGC (site CGGGAGTCTGC) : 2.76
GGTTAGTCATGGACCGGTTTTCCCGGTAATCCGTATTTGCC (site GGTTAGTCTGG) : 2.06

Using the record for CGCCATACATGGACCGGTTTTCCCGGTAATCCGTATTTGCT (site CGCCTTACTAG) , report its recombinant UMI read abundance (log10).
0.046

Proceed to CCCATCTCATGGACCGGTTTTCCCGGTAATCCGTATTTGCT (site CCCATCTCTAG)
1.63

Now this one: GGACAGACATGGACCGGTTTTCCCGGTAATCCGTATTTGCC (site GGACAGACTGG)
2.42

Also TAATGAACATGGACCGGTTTTCCCGGTAATCCGTATTTGGG (site TAATGATCTCC) ?
0.399

Again, but for TAATGGCCATGGACCGGTTTTCCCGGTAATCCGTATTTGCA (site AAATGGCCTTG)
0.00563

Could you do the same for ACGGTATCATGGACCGGTTTTCCCGGTAATCCGTATTTGCA (site ACCGTATCTTG) , please?
1.92

Same question for CGATCGCCATGGACCGGTTTTCCCGGTAATCCGTATTTGTT (site CGATCGACTAA) please.
0.0236

// repeat for TGGCCTGCATGGACCGGTTTTCCCGGTAATCCGTATTTGGC (site TGGCCAGCTGC) and report
0

Next sequence: CGGGGACCATGGACCGGTTTTCCCGGTAATCCGTATTTGGG (site CGCGGACCTCC)
0.0363

Lookup CCCTTATCATGGACCGGTTTTCCCGGTAATCCGTATTTGGG (site CCCTTTTCTCC)
0

====

# recombinant barcode read abundance (log10) values compiled below
# run-description: recombinant barcode read abundance after kanamycin selection (control-corrected) (log10(CPM+1)); higher = more efficient recombination; sequences stand for … in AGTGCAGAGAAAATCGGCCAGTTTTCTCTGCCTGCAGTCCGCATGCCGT…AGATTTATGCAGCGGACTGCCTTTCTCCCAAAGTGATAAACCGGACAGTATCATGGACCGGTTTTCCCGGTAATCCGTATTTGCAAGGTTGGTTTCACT; site = the 11-nt target
Number, no unit, nothing else.

GAGCGGCCTTGGGTTCTAACCTGTTGCAG (site GAGCGGCCTCT) : 1.72
GACAAGTCTTGGGTTCTAACCTGTTGCCT (site GAAACGTCTAG) : 0.173

Please give the measured recombinant barcode read abundance (log10) for this sequence: TCTATCCCTTGGGTTCTAACCTGTTGCCT (site TCGATCCCTAG)
0.0408

CTCGACACTTGGGTTCTAACCTGTTGCCT (site CTTGACACTAG) ?
0.215

What do you have for GTACGGCCTTGGGTTCTAACCTGTTGCCT (site GTACTGCCTAG) ?
0.0887

Same thing, different sequence: CGTGCGTCTTGGGTTCTAACCTGTTGCCT (site CGTGCGTCTAG)
0.918

Could you do the same for AGGGCGCCTTGGGTTCTAACCTGTTGCCT (site AGGGCGCCTAG) , please?
1.63

Repeat for the following sequence: CTACGACCTTGGGTTCTAACCTGTTGCAG (site TACGATACTAC)
0.186

Param item: CTAAGGCCTTGGGTTCTAACCTGTTGCAT (site AAGTCCTCTCA)
0.428

Proceed to ACCGTTCCTTGGGTTCTAACCTGTTGCCT (site CTTTAAGCTTA)
0.0328

====

# run-description: recombinant UMI read abundance after kanamycin selection (control-corrected) (log10(CPM+1)); higher = more efficient recombination; extreme values may be limits of the assay; sequences stand for … in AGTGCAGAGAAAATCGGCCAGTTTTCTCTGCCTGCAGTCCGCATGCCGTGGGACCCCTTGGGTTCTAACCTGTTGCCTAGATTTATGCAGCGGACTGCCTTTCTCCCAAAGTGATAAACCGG…AGGTTGGTTTCACT; site = the 11-nt donor
Please enter yes (1) where recombinant UMI read abundance (log10) is greater than or equal to 0.1, and no (0) where it is lower.

Use the examples below as a reference point.
TACCTGCCATGGACCGGTTTTCCCGGTAATCCGTATTTGTA (site TACCTGCCTTA) : no (0)
CAAGCCTCATGGACCGGTTTTCCCGGTAATCCGTATTTGTC (site CAAGCCTCTGA) : yes (1)
AGCTCAGCATGGACCGGTTTTCCCGGTAATCCGTATTTGGA (site AGCTCAGCTGC) : no (0)

Is reported recombinant UMI read abundance (log10) greater than or equal to 0.1 here: TTAGCCGCATGGACCGGTTTTCCCGGTAATCCGTATTTGTG (site TTAGCAGCTCA)
yes (1)

// next record CTTCTACCATGGACCGGTTTTCCCGGTAATCCGTATTTGCT (site CTACTACCTAG)
no (0)

// next record GATGAGACATGGACCGGTTTTCCCGGTAATCCGTATTTGAA (site GATGAGACTTT)
yes (1)

// query: GACCCATCATGGACCGGTTTTCCCGGTAATCCGTATTTGAG (site GACCCATCTCT)
yes (1)

// query: GTCACGTCATGGACCGGTTTTCCCGGTAATCCGTATTTGCG (site GTCACGTCTCG)
yes (1)

Note, next up: CTCCAGTCATGGACCGGTTTTCCCGGTAATCCGTATTTGAG (site CTCCAGTCTCT)
yes (1)

Here is the next sequence: GTTCGATCATGGACCGGTTTTCCCGGTAATCCGTATTTGCA (site GTTCGACCTTG)
no (0)

How about AGATCAGCATGGACCGGTTTTCCCGGTAATCCGTATTTGCT (site AGATCAGCTAG) ?
yes (1)

Another sequence: CTGCGAGCATGGACCGGTTTTCCCGGTAATCCGTATTTGCA (site CTGCGAGCTTG)
yes (1)

Next sequence: TAATGAGCATGGACCGGTTTTCCCGGTAATCCGTATTTGGA (site TAATGAGCTCC)
no (0)

# iterate: CACTCCTCATGGACCGGTTTTCCCGGTAATCCGTATTTGCT (site CACTCCTCTGG)
yes (1)

Another sequence to check: TGTGCGGCATGGACCGGTTTTCCCGGTAATCCGTATTTGCT (site TCTGCGGCTAG)
no (0)

Next entry: ACCGAGGCATGGACCGGTTTTCCCGGTAATCCGTATTTGGG (site ACCGAGGCTCC)
yes (1)

Please answer likewise for TCACACCCATGGACCGGTTTTCCCGGTAATCCGTATTTGCC (site TCACACCCTGG)
yes (1)

Also TACTATGCATGGACCGGTTTTCCCGGTAATCCGTATTTGCG (site TACTATGCTCG) ?
yes (1)

Same thing, different sequence: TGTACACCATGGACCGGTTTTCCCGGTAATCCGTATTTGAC (site TGTACACCTGA)
no (0)

Field entry: CGGACCTCATGGACCGGTTTTCCCGGTAATCCGTATTTGCT (site CGGACATCTAG)
no (0)

Check CCGACCGCATGGACCGGTTTTCCCGGTAATCCGTATTTGTA (site CCGACCGCTTA) too.
yes (1)

Same again, this time with GGAGCACCATGGACCGGTTTTCCCGGTAATCCGTATTTGCA (site GGAGCACCTTG)
no (0)
